- measurement_target: human ether-à-go-go-related gene (hERG) potassium channel (human);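 further: peak tail current of the secondary pulse compared with the same well before compound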
- measurement_protocol: primary screen, population patch clamp on CHO cells stably expressing hERG; higher = less effect of the substance
Among all 310,000 compounds or so, about 14,000 (4.5%) showed an effect of 50% or more. The effect is printed as a negative number. This excerpt belongs to a sample that is enriched for strong results.
measured_quantity: hERG current change (%, negative = inhibition) at 10uM (%)
One number for each entry, in %.

Worked examples, 5 molecules total:
O=C(CSc1nc(=O)n(CCCN2CCOCC2)c2c1CCCC2)Nc1cccc(F)c1; -56.2
CCN(C(=S)Nc1ccc(C(C)=O)cc1)C1CCCCC1; 3.5
CC/C(O)=C1\C(=O)CCCC1=NCCc1c(C)[nH]c2ccc(C)cc12; -14
CC(=O)c1ccc(NC(=O)CSc2nnc(-c3ccco3)c(-c3ccco3)n2)cc1; -33
O=Cc1cn(CCOc2ccccc2)c2ccccc12; 4.98

// for each molecule in input: emit hERG current change (%, negative = inhibition) at 10uM
1. CCc1ccc(CCC(=O)Nc2ccc(C)c(C)c2)o1
2. FC(F)Oc1ccccc1/C=N/Nc1nc2ccccc2o1
3. Cc1cc(C)cc(N2C(=O)CC(N(C(=O)c3ccco3)c3cc(C)cc(C)c3)C2=O)c1 (stereo not shown)
4. CCOC(=O)CSCC(=O)N1CCC(Cc2ccccc2)CC1
5. Nc1ccc(N=Nc2ccccc2)c2ccccc12

Response given:
1: -20.8; 2: 33.5; 3: 12.8; 4: 3.24; 5: 22.4

----------
- measurement_target: human ether-à-go-go-related gene (hERG) potassium channel (human);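 further: peak tail current of the secondary pulse compared with the same well before compound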
- measurement_protocol: primary screen, population patch clamp on CHO cells stably expressing hERG; higher = less effect of the substance
Out of some 310,000 compounds screened, about 14,000 (4.5%) showed an effect of 50% or more. The effect is printed as a negative number. The full list was thinned out, with strong results kept by preference.
measured_quantity: hERG current change (%, negative = inhibition) at 10uM (%)
One number for each entry, in %.

Worked examples, 2 compounds total:
O=C(CCC(=O)N1CCOc2ccccc21)NCCCN1CCN(Cc2ccccc2)CC1; -79.8
O=C(CCC(=O)N1CCOc2ccc(Cl)cc21)NCCN1CCOCC1; 3.97

// for each compound in input: emit hERG current change (%, negative = inhibition) at 10uM
1. CC(=O)Nc1ccc(NC(=O)c2ccc(-c3ccc([N+](=O)[O-])cc3)o2)cc1
2. O=C(CCC(=O)N1CCOc2ccccc21)NCCCN1CCCCC1
3. NC(=O)CC(NC(=O)c1ccccc1)c1ccc(N2CCC(Cc3ccccc3)CC2)c([N+](=O)[O-])c1 (stereo not shown)
4. O=C(Nc1ccccc1)c1ccc(-c2ccc([N+](=O)[O-])cc2)o1

Response given:
1: -14.5; 2: 7; 3: 4.44; 4: 4.73

----------
- measurement_target: human ether-à-go-go-related gene (hERG) potassium channel (human, UniProt Q12809);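 further: peak tail current of the secondary pulse compared with the same well before compound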
- Sequence (Q12809 whole entry, looked up): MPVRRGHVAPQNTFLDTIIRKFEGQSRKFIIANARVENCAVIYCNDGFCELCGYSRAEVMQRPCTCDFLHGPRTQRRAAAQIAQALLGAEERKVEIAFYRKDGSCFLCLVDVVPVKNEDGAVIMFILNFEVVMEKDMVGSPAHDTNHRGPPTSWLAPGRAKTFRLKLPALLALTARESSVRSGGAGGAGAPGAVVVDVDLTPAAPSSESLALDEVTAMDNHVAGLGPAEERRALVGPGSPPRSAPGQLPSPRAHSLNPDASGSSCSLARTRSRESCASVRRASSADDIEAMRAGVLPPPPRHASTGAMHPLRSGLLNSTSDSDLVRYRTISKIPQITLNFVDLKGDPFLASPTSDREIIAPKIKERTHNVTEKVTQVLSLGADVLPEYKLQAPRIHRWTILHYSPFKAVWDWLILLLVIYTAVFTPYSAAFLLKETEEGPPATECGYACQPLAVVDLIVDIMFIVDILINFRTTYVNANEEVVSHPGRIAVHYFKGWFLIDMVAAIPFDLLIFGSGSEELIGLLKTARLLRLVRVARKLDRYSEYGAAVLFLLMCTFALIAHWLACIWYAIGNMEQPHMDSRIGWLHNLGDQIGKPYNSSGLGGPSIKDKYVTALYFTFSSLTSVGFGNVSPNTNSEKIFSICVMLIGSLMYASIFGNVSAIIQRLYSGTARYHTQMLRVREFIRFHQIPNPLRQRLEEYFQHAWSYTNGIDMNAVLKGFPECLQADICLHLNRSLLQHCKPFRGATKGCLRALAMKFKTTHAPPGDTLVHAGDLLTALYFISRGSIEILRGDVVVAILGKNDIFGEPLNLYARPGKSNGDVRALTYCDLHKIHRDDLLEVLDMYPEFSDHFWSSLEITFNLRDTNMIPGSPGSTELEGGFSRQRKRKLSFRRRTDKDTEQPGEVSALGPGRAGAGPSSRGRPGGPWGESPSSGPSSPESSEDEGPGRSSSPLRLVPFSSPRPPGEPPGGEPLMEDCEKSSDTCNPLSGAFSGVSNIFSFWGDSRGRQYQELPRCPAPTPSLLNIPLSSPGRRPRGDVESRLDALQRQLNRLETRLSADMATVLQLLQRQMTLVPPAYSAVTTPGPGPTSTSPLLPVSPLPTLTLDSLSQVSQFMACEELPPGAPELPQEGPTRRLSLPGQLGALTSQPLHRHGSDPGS
- measurement_protocol: primary screen, population patch clamp on CHO cells stably expressing hERG; higher = less effect of the substance
- Procedure: Briefly, Chinese hamster ovary (CHO) cells stably expressing the hERG channel were dislodged from tissue culture flasks and dispensed into PPC plates. […] During the recording, background leak currents were estimated by a 100 ms step to -80 mV from an initial holding potential of -70 mV and subtracted from the subsequent current measurement. The campaign was conducted in two phases using slight differences in recording protocol. […]
Out of some 310,000 compounds screened, about 14,000 (4.5%) showed an effect of 50% or more. The effect is printed as a negative number. The full list was thinned out, with strong results kept by preference.
Hi there, I'd appreciate the recorded hERG current change (%, negative = inhibition) at 10uM for every entry that follows.
Answers are plain numbers, in %.

Worked examples, 4 molecules total:
CCCCn1c(SCC(=O)NC(C)(C)C)nnc1-c1ccco1; -1.57
C/C(=N/NC(=O)c1ccco1)c1cccc(NC(=O)c2ccc(C)s2)c1; 1.1
COc1ccc(C(C)(C)C)cc1NC(=S)NCCN1CCOCC1; 1.38
Cl.OC(CNCc1ccccc1)COCc1ccc(Cl)cc1 (stereo not drawn); -50.3

// for each molecule in input: emit hERG current change (%, negative = inhibition) at 10uM
1. COCc1nc(-c2ccc(-c3ccccc3)nc2OC)no1
2. COC(=O)c1ccc(Oc2nc(NC(C)C)nc(N(C)C)n2)cc1

Response given:
1: -2.5; 2: 12.5

// for each molecule in input: emit hERG current change (%, negative = inhibition) at 10uM
1. CCCCn1c(SCC(=O)NC2CCCC2)nnc1-c1ccco1
2. COc1cc(/C=C2\C(=O)NN(c3ccccc3)C2=O)cc([N+](=O)[O-])c1O
3. O=C(O)c1ccc(COc2ccccc2/C=C2\NC(=O)N(Cc3ccccc3)C2=O)cc1

Response given:
-54.8
22
24.5

The reported measurements were obtained from paper PMC4336329.
